# system: Calmodulin-1 (Homo sapiens)
# protocol-text: calcium-bound CALM1 binders on microarrays, profiling panel, artefact control for SMM control-protein annotation, biochemical, small-molecule microarray, Cy5-labelled CALM1, plus calcium (AID 1112);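 further: score merges spot fluorescence with signal to noise from triplicate slides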
# experimental-conditions: Cy5-CALM1 binding fluorescence, higher = more signal
Assign a class from recorded composite z-score; defined classes: A: < -0.3; B: ≥ -0.3 and < 0.5; C: ≥ 0.5

Note: place this compound into its band. Item: COCCOC(=O)N1C(=O)[C@@]2(c3cc(C#CC4=CCCCC4)ccc31)[C@H](C(=O)N1CCN(c3ncccn3)CC1)[C@H]1C(=O)O[C@H](c3ccccc3)[C@H](c3ccccc3)N1[C@@H]2c1ccccc1OCCO
B

Note: place this compound into its band. Item: [N-]=[N+]=NCc1ccccc1C[C@@]1(C(=O)O)N=C(c2ccc(OCCCO)cc2)O[C@@H]1c1ccccc1CN=[N+]=[N-]
B

Note: place this compound into its band. Item: CC=CC(O)C1C=CC2C(=O)N(C)C(=O)C2N1NC(=O)OC(C)(C)C (centres undefined)
A

Note: place this compound into its band. Item: COCCOC(=O)N1C(=O)[C@@]2(c3cc(C#CCC(C(=O)OC)C(=O)OC)ccc31)[C@H](C(=O)N1CCCCCCC1)[C@H]1C(=O)O[C@H](c3ccccc3)[C@H](c3ccccc3)N1[C@@H]2c1ccccc1OCCO
C

Note: place this compound into its band. Item: CN(C)CCCC[C@@H]1NC(=O)[C@@H]2C[C@H](C(=O)NCc3ccc(F)cc3)[C@H](c3ccc(O)cc3)N2C1=O
B

Note: place this compound into its band. Item: C=CCOC(=O)[C@H]1[C@@H]2C(=O)O[C@@H](c3ccccc3)[C@@H](c3ccccc3)N2[C@@H](c2ccc(OCCOC(=O)[C@@H]3C[C@@H]4C(=O)N[C@@H](CC(C)C)C(=O)N4[C@@H]3c3ccc(O)cc3)cc2)[C@]12C(=O)Nc1ccc(I)cc12
B

Note: place this compound into its band. Item: C=CCC(OC(C)=O)[C@@H]1[C@@H](N(Cc2ccc(-c3cccc(C(F)(F)F)c3)o2)C(=O)Cc2ccc(OC)cc2)c2cc(OCCCO)ccc2N1C(=O)c1ccc2ccccc2n1 (some centres undefined)
A

Note: place this compound into its band. Item: CCC(CC)C(O)C1C=CC2C(=O)N(C)C(=O)C2N1N1CCCCC1 (centres undefined)
B

Note: place this compound into its band. Item: COCCOC(=O)N1C(=O)[C@@]2(c3cc(C#CC4=CCCCC4)ccc31)[C@H](c1ccc(OCCO)cc1)N1[C@H](c3ccccc3)[C@H](c3ccccc3)OC(=O)[C@H]1[C@@H]2C(=O)N1CCCCCCC1
C

Note: place this compound into its band. Item: C=C(COC)/C(=C/C[C@@H](OC(C)=O)c1ccccc1OCCO)c1cc(C(=O)OC)ccc1OC
A

Note: place this compound into its band. Item: COCCOC(=O)N1C(=O)[C@@]2(c3cc(C#CC4(O)CCCCCC4)ccc31)[C@H](c1ccc(OCCO)cc1)N1[C@H](c3ccccc3)[C@H](c3ccccc3)OC(=O)[C@H]1[C@@H]2C(=O)N1CCCCCCC1
C

Note: place this compound into its band. Item: [N-]=[N+]=NCc1ccccc1C[C@]1(C(=O)N2CCOCC2)N=C(c2ccc(OCCCO)cc2)O[C@H]1c1ccccc1CN=[N+]=[N-]
C

Note: place this compound into its band. Item: CN1C=C(C(=O)OCCS(C)(=O)=O)C(C(=O)OCCS(C)(=O)=O)=CC(CCCO)=CC1c1ccc(CN2CCCC2)cc1 (centres undefined)
A

Note: place this compound into its band. Item: C=C(CC1([C@@H](NP(=O)(c2ccccc2)c2ccccc2)[C@H]2C[C@@H]2CCN(C(=O)OCC)S(=O)(=O)c2ccc(C)cc2)CC1)c1ccccc1
C

Note: place this compound into its band. Item: CCOC(=O)C[C@H]1[C@H](OC(=O)c2cc3ccccc3oc2=O)[C@@H](NC(=O)C2CCCCC2)c2cc(OCCCO)ccc2N1C(=O)Cc1ccc(OC)cc1
B

Note: place this compound into its band. Item: O=C1C2C=CC(C(O)c3cccc(O)c3)N(Nc3ccccc3F)C2C(=O)N1c1ccccc1 (centres undefined)
A

Note: place this compound into its band. Item: COC(=O)[C@@]1(Cc2ccc(F)cc2)[C@H]2c3cc(C(=O)N(C)C)n(CCO)c3C[C@H]2CN1C(=O)c1ccccc1
B

Note: place this compound into its band. Item: COC(=O)[C@@]1(Cc2ccc(F)cc2)[C@H]2c3cc(C(=O)N(C)C)n(CCN4CCOCC4)c3C[C@H]2CN1C(=O)c1ccccc1
B

Note: place this compound into its band. Item: COCCOC(=O)N1C(=O)[C@@]2(c3cc(C#CCC(C(=O)OC)C(=O)OC)ccc31)[C@H](C(=O)N1CCc3cc(OC)c(OC)cc3C1)[C@H]1C(=O)O[C@H](c3ccccc3)[C@H](c3ccccc3)N1[C@@H]2c1ccc(O)cc1
A

Note: place this compound into its band. Item: COCCOC(=O)N1C(=O)[C@@]2(c3cc(C#Cc4ccc(OC)cc4)ccc31)[C@H](C(=O)Nc1nc3ccccc3s1)[C@H]1C(=O)O[C@H](c3ccccc3)[C@H](c3ccccc3)N1[C@@H]2c1ccccc1OCCO
C

Note: place this compound into its band. Item: COCCOC(=O)N1C(=O)[C@@]2(c3ccccc31)[C@H](C(N)=O)[C@H]1C(=O)O[C@H](c3ccccc3)[C@H](c3ccccc3)N1[C@@H]2c1ccc(OCCO)cc1
B

Note: place this compound into its band. Item: C=CCC(OC(C)=O)[C@@H]1[C@@H](N(Cc2ccc(-c3ccccc3)cc2)C(=O)c2ccc(-c3ccccc3)cc2)c2cc(OCCCO)ccc2N1C(=O)c1ccc2ccccc2n1 (some centres undefined)
C

Note: place this compound into its band. Item: CCOC(=O)C1=CC[C@@H](c2ccc(F)cc2)N(S(=O)(=O)c2ccc(C)cc2)[C@H]1c1ccc([N+](=O)[O-])cc1
B
